Just for reference, PubChem BioAssay is where these values come from.

target: Alpha-2C adrenergic receptor (Homo sapiens); assay: modulators of alpha2C/GIRK thallium flux, primary screen, cell-based, HEK293 alpha2C/GIRK1/2 (AID 624); details: thallium flux BTC fluorescence, at 10 µM, actives lie on both sides;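 also: slope of fluorescence ratio to pre-addition baseline per second over 15 to 24 s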
Calls of active or inactive are those of the source.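 The calls were made as follows: active = fluorescence slope after compound addition differing from the mean of all screened samples at 99.7% confidence, in either direction; inactive = the rest.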
value.type: slope

Field: example entries. Status: answers known.
compound	study.target	slope
COc1cc(NC(=O)CSCc2cnn(-c3ccccc3)c2-n2cccc2)cc(OC)c1	Alpha-2C adrenergic receptor (Homo sapiens)	0.00868 (inactive)
N#CC1=C(N)C(C#N)(C#N)[C@H](c2ccsc2)[C@H]2COCC=C12	Alpha-2C adrenergic receptor (Homo sapiens)	0.00495 (inactive)

Fill in slope for each of the 8 compounds listed.
1. O=C(CN1CCN(c2ncccn2)CC1)Nc1ccccc1-n1cccc1
2. COc1cc(S(=O)(=O)N2CCC(N3CCCCC3)CC2)ccc1-n1cnnn1
3. CCOC(=O)N1CCC(Nc2nc3ccccc3n3cnnc23)CC1
4. CCN(CC)CCCNc1oc(-c2cccc(Cl)c2)nc1C#N
5. CCCCN(CC)CCCNC(=O)c1cc2c(=O)n(C)c3ccccc3c2n1C
6. COCCN(C(=O)CCC(=O)Nc1ccccn1)C(C(=O)NC1CCCC1)c1ccc(OC)cc1 (stereo not drawn)
7. CCC(C)(C)n1nnnc1C(c1cc2cc(OC)ccc2[nH]c1=O)N1CCc2ccccc21 (stereo not drawn)
8. Cc1ccc(C(=O)NC(Cc2c[nH]c3ccccc23)C(=O)O)o1 (stereo not drawn)

## Output
["0.006 (inactive)", "0.00492 (inactive)", "0.00645 (inactive)", "0.00338 (inactive)", "0.00621 (inactive)", "0.00514 (inactive)", "0.0033 (inactive)", "0.0112 (active)"]

Fill in slope for each of the 5 compounds listed.
1. Cn1cnc(S(=O)(=O)NCc2cccs2)c1
2. Cc1oc2c(CN3CCOCC3)c(O)ccc2c(=O)c1-c1ccc(Br)cc1
3. COc1cccc(CNC(=O)Cn2c(=O)oc3ccccc32)c1OC
4. CC(C)CN(CC(C)C)C(=O)CS(=O)(=O)Cc1ccccc1
5. O=C(NCc1ccccn1)C(C(=O)c1ccc(F)cc1)n1ccccc1=O (stereo not drawn)

## Output
0.00567 (inactive)
0.00357 (inactive)
0.00743 (inactive)
0.00578 (inactive)
0.0066 (inactive)

====

So I've got a bunch of compounds here, and I need their nuclei count values.
test: inhibitors of mutant huntingtin aggregation, primary screen, imaging, exon1htt(103Q)mCFP cells, high-content imaging (AID 483); settings: exon1htt(103Q)mCFP cell line, aggregate imaging, at 2 µM; measured here: cell count, toxicity;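 also: compound exposure lasted 3 days before fixation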;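 as to nuclei count: percent of the per-plate median nuclei count of sample wells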
Answers are plain numbers, in %.

compound	nuclei count (%)
CCCn1cc(C(CC(=O)O)C(=O)O)c2ccccc21 (stereo not drawn)	97.5
Cc1csc(NC(=O)CSc2nnc(Cc3cccn3C)n2-c2ccc(F)cc2)n1	74
COc1ccc(OC)c(S(=O)(=O)N2CCC(C(=O)NCc3ccccc3OC)CC2)c1	107
Cc1cccc(NC(=O)COc2ccc(Br)cc2)n1	110

Fill in nuclei count for each of the 6 compounds listed.
1. Cc1ccc(CNc2cc(-c3nn4c(C)nnc4s3)ccc2C)s1
2. Cn1c(=O)c2[nH]c(NCC3CCCO3)nc2n(-c2ccccc2)c1=O (stereo not drawn)
3. Cc1cn2c(-c3ccc(Cl)cc3)nnc2s1
4. CCOc1ccccc1C(=O)Nc1cc(=O)n(C)c(=O)n1C
5. Cc1c(C(=O)NCCC2=CCCCC2)oc2ccc(S(=O)(=O)N3CCC4(CC3)OCCO4)cc12
6. CC(=O)O[C@H]1CSC[C@H]1NC(=O)c1ccccc1

## Output
[2.1, 108, 98, 95.8, 113, 96.2]

Fill in nuclei count for each of the 7 compounds listed.
1. COc1ccc(S(=O)(=O)C(C#N)c2nc3ccccc3nc2N2CCCC(C)C2)cc1 (stereo not drawn)
2. COc1ccc(-c2nnnn2C)cc1S(=O)(=O)NCc1ccccc1
3. O=C(NC(=O)c1cccc(F)c1)OC[C@@H]1CCCN2CCCC[C@H]12
4. O=C(NCc1ccccc1)C1CCCN1S(=O)(=O)c1cccc2cccnc12 (stereo not drawn)
5. COc1cc(NC(=O)C2C3C=CC(C3)C2C(=O)O)c(OC)cc1Cl (stereo not drawn)
6. CCN=C1SC(CC(=O)Nc2ccccc2)C(=O)N1CC (stereo not drawn)
7. CCc1cc(=O)oc2cc(OC(C)=O)cc(OC(C)=O)c12

## Output
1. 92.2
2. 106
3. 77.9
4. 67.5
5. 98.6
6. 92
7. 104

Fill in nuclei count for each of the 8 compounds listed.
1. COc1cc(C(=O)OCC(=O)N(C)Cc2ccccc2)cc(OC)c1OC
2. c1ccc(-c2nnc(-c3ccco3)n2-c2ccccc2)cc1
3. CN(C)CCN1C(=O)c2oc3ccc(Cl)cc3c(=O)c2C1c1cccc(Br)c1 (stereo not drawn)
4. CN(C)c1oc(-c2ccccc2F)nc1C#N
5. CCN(CC)C(=O)CSc1nnc(-c2cc(OC)cc(OC)c2)o1
6. O=C(NCC(F)(F)F)Nc1cccnc1
7. COc1ccc(Oc2nc(Oc3ccc(OC)cc3)nc(Oc3ccc(OC)cc3)n2)cc1
8. CC(=O)C1=C(C)NC(=O)NC1c1cccc(O)c1 (stereo not drawn)

## Output
[110, 102, 83.3, 104, 100, 100, 109, 111]

====

assay: inhibitors of mutant huntingtin aggregation, primary screen, imaging, exon1htt(103Q)mCFP cells, high-content imaging (AID 483); conditions: exon1htt(103Q)mCFP cell line, aggregate imaging, at 2 µM; measured here: cell count, toxicity;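 also: compound exposure lasted 3 days before fixation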;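 as to nuclei count: percent of the per-plate median nuclei count of sample wells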
So I've got a bunch of compounds here, and I need their nuclei count values.
One number for each entry, in %.

Field: example entries. Status: answers known.
compound	unit.spec	nuclei count
O=C(NCc1cccnc1)C1CCCN(S(=O)(=O)c2ccc(Cl)cc2)C1 (stereo not given)	%	98
Cc1cc(C)n(-c2nc3c(c(=O)n(Cc4ccc(Cl)c(Cl)c4)c(=O)n3C)n2C)n1	%	105
COc1ccc(S(=O)(=O)N2CCC(C(=O)c3ccc4c(c3)OCCO4)CC2)cc1	%	157
CCSc1nncn1/N=C/c1ccc(OC)c(OC)c1	%	89.8

## Input Reported nuclei count for CN(C)S(=O)(=O)Nc1ccc(Br)cc1F : what is it?
## Output 103

====

experiment: inhibitors of mutant huntingtin aggregation, primary screen, imaging, exon1htt(103Q)mCFP cells, high-content imaging (AID 483); details: exon1htt(103Q)mCFP cell line, aggregate imaging, at 2 µM; stronger effect = higher value;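 also: compound exposure lasted 3 days before fixation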
value.type: inhibition of aggregation (%)
Numbers only, in %.

Field: example entries. Status: answers known.
compound	value.measured
Cn1c(=O)c2c(nc(CN3CCCCC3)n2CCCc2ccccc2)n(C)c1=O	-30.7
COc1ccccc1N1CCN(C(=O)c2ccc(S(=O)(=O)N3CCCCCC3)cc2)CC1	-9.1
CCOC(=O)N1CCC(NC(=O)Cn2ncc3c4ccccc4n(C)c3c2=O)CC1	-0.9
CC(C)C(NC(=O)c1ccco1)C(=O)NCC(c1ccco1)N1CCCCC1 (centres undefined)	6.7
Cc1cc(NS(=O)(=O)c2ccc(NC(=O)Nc3ccc4c(c3)OCO4)cc2)no1	-12.8

Fill in inhibition of aggregation for each of the 2 compounds listed.
1. Cc1cc(C(=O)NCc2ccc(S(N)(=O)=O)cc2)cs1
2. COc1cccc(NC(=O)N(Cc2ccco2)C(C)c2cccs2)c1 (centres undefined)

## Output
1: -10.8; 2: -16.2

Fill in inhibition of aggregation for each of the 3 compounds listed.
1. CCn1c(SCC(=O)NC)nnc1C(C)C
2. COc1cccc(NS(=O)(=O)c2ccc3[nH]cc(C(=O)NC4CC4)c(=O)c3c2)c1
3. Cc1cc(NC(=O)CSc2nccn2-c2ccc(F)cc2)no1

## Output
1. -4.5
2. -2.9
3. -13.1

====

experiment: DUSP6 inhibitors restoring Erk phosphorylation by chemical complementation, primary imaging in DUSP6-transfected HeLa (AID 609); details: HeLa MKP-3 transfected, phospho-Erk imaging KS statistic; measured here: cell density z-score; at 10 µM; cells stimulated with TPA for 15 min
value.type: z-score
Give bare numbers.

compound	z-score
COc1cccc(Cn2c(NCc3ccco3)nc3c2c(=O)n(C)c(=O)n3C)c1	0.733
CCSc1nnc(NC(=O)NCC(F)(F)F)s1	1.02
CN1CCc2c(C#N)c(N3CCCCC3)nc(N3CCOCC3)c2C1	0.848
CCOC(=O)c1c(C)n(C)c2ccc(OC)c(NC(=O)CN3CCC4(CC3)OCCO4)c12	0.288

Now examine the next entry.
## Input Reported z-score for COc1cccc(C(=O)OC2CCCN(C)C2)c1 (stereo not given) : what is it?
## Output 0.452

====

experiment: inhibitors of E-selectin induction by TNFa, primary screen, imaging, HUVEC, immunofluorescence, MLSMR starter and 10KST1 sets (AID 487); details: HUVEC TNFalpha-induced E-selectin immunofluorescence imaging, at 2 µM; measured here: cell number, toxicity;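 also: 100% = median nuclei count of all wells on the same plate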
So I've got a bunch of compounds here, and I need their nuclei count values.

compound	value.measured
N#Cc1c2c(c(-c3ccco3)[nH]c1=O)CCCC2	152%

Fill in nuclei count for each of the 6 compounds listed.
1. CN1C(=O)C2(c3ccccc31)C1CCCC=C1C(C#N)=C(N)C2(C#N)C#N (stereo unspecified)
2. Cc1cc(C)n(S(=O)(=O)/C=C/c2ccccc2)n1
3. CCSc1cc(C2C(C(=O)OC)=C(C)NC3=C2C(=O)CCC3)c(C)o1 (stereo unspecified)
4. CCOc1ccccc1-n1c(SCC(=O)NC2CCCC2)nnc1-c1ccoc1C
5. O=C(O)C1C2C=CC3(CN(C4CCCC4)C(=O)C13)O2 (stereo unspecified)
6. Cc1cccc2cc(CN(CCN3CCCC3)C(=O)NC3CCCCC3)c(=O)[nH]c12

## Output
1. 143%
2. 150%
3. 129%
4. 62.7%
5. 97.3%
6. 97%

Fill in nuclei count for each of the 6 compounds listed.
1. O=S(=O)(Nc1nc2ccccc2nc1NCc1ccco1)c1cccs1
2. Cc1cc(C)n2nc(SCc3cc(=O)n4ccccc4n3)nc2n1
3. CCc1nc2n[nH]c(N)c2c2c1CCCC2
4. O=C(COc1ccccc1)NCC(c1cccs1)N1CCOCC1 (stereo unspecified)
5. COc1ccc(C)cc1NC(=O)COCC(=O)O
6. CC1CCCCC1NC(=O)CN1CCN(Cc2ccccc2Cl)C1=O (stereo unspecified)

## Output
120%
112%
194%
112%
102%
98.9%
